Target: α1B Human Adrenergic Receptor (Homo sapiens, UniProt P35368)
Construct: The entire coding region of α1B (1563 bp); expressed in transfected cells
Sequence (P35368 whole entry): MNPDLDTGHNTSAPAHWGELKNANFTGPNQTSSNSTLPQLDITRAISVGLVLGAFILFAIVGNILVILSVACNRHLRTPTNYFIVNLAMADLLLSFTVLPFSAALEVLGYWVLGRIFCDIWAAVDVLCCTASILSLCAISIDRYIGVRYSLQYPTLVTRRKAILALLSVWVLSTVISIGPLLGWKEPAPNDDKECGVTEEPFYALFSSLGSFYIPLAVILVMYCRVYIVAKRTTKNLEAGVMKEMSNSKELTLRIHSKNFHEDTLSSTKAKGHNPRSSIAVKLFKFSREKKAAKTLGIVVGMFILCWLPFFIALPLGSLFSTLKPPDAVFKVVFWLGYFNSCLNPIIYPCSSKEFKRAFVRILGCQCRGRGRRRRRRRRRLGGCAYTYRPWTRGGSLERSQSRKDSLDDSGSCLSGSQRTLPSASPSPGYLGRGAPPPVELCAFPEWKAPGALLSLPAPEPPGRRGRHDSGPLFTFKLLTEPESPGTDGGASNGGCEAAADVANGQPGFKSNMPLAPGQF
Assay: Radioligand binding, [3H]prazosin, cloned human α1B adrenergic receptor
Details: cloned human α1B receptor, LM(tk−) cell membranes
Label label 1 when pKi alpha-1 1b is at or above 7; otherwise label label 0.

Use the examples below as a reference point.
INSERT INTO results (molecule, assigned_category) VALUES
  ('CCC1=C(C(=O)NC)C(c2ccc([N+](=O)[O-])cc2)C(C(=O)NCCCN2CCC(C#N)(c3ccccc3)CC2)=C(CC)N1 (stereo not drawn)', 'label 0'),
  ('CNC(=O)C1=C(C)NC(C)=C(C(=O)NCCCN2CCC(c3ccccc3)(c3ccccc3)CC2)C1c1ccc([N+](=O)[O-])cc1 (racemic) [(±)-119]', 'label 0'),
  ('CCC1=C(C(N)=O)C(c2ccc([N+](=O)[O-])cc2)C(C(=O)NC2CCN(CCc3c[nH]c4ccccc34)CC2)=CN1CC (stereo not drawn) [Example 123]', 'label 1');

Data request: Check if pKi alpha-1 1b >= 7 (inclusive). Item: CCC1=C(C(N)=O)C(c2ccc([N+](=O)[O-])cc2)C(C(=O)NC2CCN(CCc3c[nH]c4ccccc34)CC2)=CN1CC (stereo not drawn) [Example 122]
Data returned: label 1

Data request: Check if pKi alpha-1 1b >= 7 (inclusive). Item: CCC1=C(C(N)=O)C(c2ccc([N+](=O)[O-])cc2)C(C(=O)NCCCN2CCC(O)(c3ccccc3)CC2)=CN1CC.Cl.O (stereo not drawn)
Data returned: label 0

Data request: Check if pKi alpha-1 1b >= 7 (inclusive). Item: COC(=O)C1=C(C)NC2=C(C(=O)N(CCCN3CCC(c4ccccc4)(c4ccccc4)CC3)C2)C1c1ccc([N+](=O)[O-])cc1.Cl.O (stereo not drawn)
Data returned: label 0

Data request: Check if pKi alpha-1 1b >= 7 (inclusive). Item: CCC1=C(C(N)=O)C(c2ccc([N+](=O)[O-])cc2)C(C(=O)NCCCN2CCC(c3ccccc3)(c3ccccc3)CC2)=C(CC)N1 (stereo not drawn)
Data returned: label 0

---

Target: α2C receptor (Homo sapiens, UniProt P18825)
Construct: host or cells: LM(tk-) cells, line L-α2C
Sequence (P18825 whole entry): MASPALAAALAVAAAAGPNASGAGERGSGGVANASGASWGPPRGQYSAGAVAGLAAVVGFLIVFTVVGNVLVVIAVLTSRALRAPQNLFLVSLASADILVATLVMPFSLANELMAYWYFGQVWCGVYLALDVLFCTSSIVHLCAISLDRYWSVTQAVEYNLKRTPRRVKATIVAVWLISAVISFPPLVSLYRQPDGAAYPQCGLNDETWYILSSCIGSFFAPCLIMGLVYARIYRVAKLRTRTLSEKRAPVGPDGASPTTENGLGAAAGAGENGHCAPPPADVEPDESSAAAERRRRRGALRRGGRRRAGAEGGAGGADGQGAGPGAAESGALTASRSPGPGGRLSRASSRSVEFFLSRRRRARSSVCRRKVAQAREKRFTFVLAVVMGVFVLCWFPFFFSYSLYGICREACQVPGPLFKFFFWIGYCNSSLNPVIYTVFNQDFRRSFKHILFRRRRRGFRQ
Assay: Competition binding, [3H]rauwolscine, human α2C receptor
Conditions: pKi alpha-2 2c
Counter-ions that a name gives are not always drawn.
Let's look at some compounds and their measured pKi.
Give only the number. pKi is defined as minus log10 of concentration in molar units.

INSERT INTO assay_data (compound, recorded_value) VALUES
  ('COC(=O)C1=C(C)NC(C)=C(C(=O)NCCCN2CCC(c3ccccc3)(c3ccccc3)CC2)C1c1ccc(C(=O)OC)cc1 (stereo not drawn)', 5.99),
  ('COC(=O)C1=C(C)NC(C)=C(C(=O)NCCCN2CCC(c3ccccc3)(c3ccccc3)CC2)C1c1ccc2ccccc2c1 (stereo not drawn)', 6.20),
  ('COC(=O)C1=C(C)NC(C)=C(C(=O)NCCCN2CCC(c3ccccc3)(c3ccccc3)CC2)C1c1ccc(Cl)c(Cl)c1 (stereo not drawn)', 6.80),
  ('COC(=O)C1=C(C)NC(c2ccccc2)=C(C(=O)NCCCN2CCC(c3ccccc3)(c3ccccc3)CC2)C1c1ccc([N+](=O)[O-])cc1 (stereo not drawn) [Example 78, hydrochloride hydrate]', 6.82),
  ('COC(=O)C1=C(C)NC(C)=C(C(=O)NCCN2CCC(c3ccccc3)(c3ccccc3)CC2)C1c1ccc([N+](=O)[O-])cc1 (stereo not drawn) [Example 52, hydrochloride hemihydrate]', 6.58);

# ---- query compound ----
Data request: Answer with the recorded pKi for the compound listed here: COC(=O)C1=C(C)NC(C)=C(C(=O)NCCCN2CCC(c3ccccc3)(c3ccccc3)CC2)C1c1ccc(C#N)cc1 (stereo not drawn)
Data returned: 6.06
